Each item that follows carries a reported Dmax at 1 µM.
Molecular target: IKAROS (Homo sapiens, UniProt Q13422+Q96SW2)
Construct: endogenous in cells; host or cells: MV-4-11
Sequence (Q13422 whole entry, one chain of several): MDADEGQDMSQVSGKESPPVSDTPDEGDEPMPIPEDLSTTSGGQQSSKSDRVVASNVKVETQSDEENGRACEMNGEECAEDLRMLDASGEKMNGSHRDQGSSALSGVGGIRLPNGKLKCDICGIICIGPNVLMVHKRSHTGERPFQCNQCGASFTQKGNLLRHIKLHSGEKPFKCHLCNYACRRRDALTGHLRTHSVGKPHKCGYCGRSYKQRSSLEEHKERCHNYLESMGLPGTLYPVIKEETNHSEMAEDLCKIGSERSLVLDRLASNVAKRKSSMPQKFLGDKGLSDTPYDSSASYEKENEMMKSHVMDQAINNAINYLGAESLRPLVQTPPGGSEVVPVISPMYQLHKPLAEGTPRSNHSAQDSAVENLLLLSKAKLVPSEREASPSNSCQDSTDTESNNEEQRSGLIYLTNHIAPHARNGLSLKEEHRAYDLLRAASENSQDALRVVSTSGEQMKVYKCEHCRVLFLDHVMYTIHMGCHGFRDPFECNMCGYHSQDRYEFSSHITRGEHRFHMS
Assay: IKAROS degradation assay (Western blot, MV-4-11 cells)
Assay type: cell-based
Settings: MV4-11, 6-8 h

- Compound: "Cn1ncc(-c2nc(N[C@H]3CC[C@H](NCC(=O)NCCCCNCC(=O)NCc4cc5c(s4)C(=O)N(C4CCC(=O)NC4=O)C5)CC3)ncc2Cl)c1CC1CC1 (stereo partly drawn)"
  Test Value: "50 to 75%"
- Compound: "CC(C)(C)c1cnc(CSc2cnc(NC(=O)C3CCN(CCCCCCCNCC(=O)NCc4cc5c(s4)C(=O)N(C4CCC(=O)NC4=O)C5)CC3)s2)o1 (stereo not drawn)"
  Test Value: "25 to 50%"
- Compound: "CC(C)(C)c1cnc(CSc2cnc(NC(=O)C3CCN(CC(=O)NCCCCCCCNC(=O)NCc4cc5c(s4)C(=O)N(C4CCC(=O)NC4=O)C5)CC3)s2)o1 (stereo not drawn)"
  Test Value: "25 to 50%"
- Compound: "Cn1ncc(-c2nc(N[C@H]3CC[C@H](NCC(=O)NCCCCCNCC(=O)NCc4scc5c4CN(C4CCC(=O)NC4=O)C5=O)CC3)ncc2F)c1CC1CC1 (stereo partly drawn)"
  Test Value: "50 to 75%"
- Compound: "Cn1ncc(-c2nc(N[C@H]3CC[C@H](NCCOCCOCCOCCOCCNc4cccc5c4C(=O)N(C4CCC(=O)NC4=O)C5=O)CC3)ncc2Cl)c1CC1CC1 (stereo partly drawn)"
  Test Value: "≥ 75%"

[ask] Kindly state the measured Dmax at 1 µM obtained for Cn1ncc(-c2nc(N[C@H]3CC[C@H](NCCCCCCNC(=O)NCc4cc5c(s4)C(=O)N(C4CCC(=O)NC4=O)C5)CC3)ncc2F)c1CC1CC1 (stereo partly drawn) with IKAROS (Homo sapiens, UniProt Q13422+Q96SW2).
[reply] ≥ 75%

* * *

Test system: TNF-α
Test: TNF-α inhibition assay, LPS-induced PBMCs / CD14+ monocytes (Meso Scale)
Format: cell-based
Conditions: 1 h pretreatment, 100 ng/mL LPS 18-24 h
Method: Either frozen primary blood mononuclear cells (PBMCs) or frozen CD14+ mobilized peripheral blood monocytes were purchased from AllCells (PB003F, Normal Peripheral Blood MNC (Alameda, Calif.)). Cells were quick thawed, washed 1-time with RPMI-1640 (10% FBS/1% Pen-Strep) and plated in 96 well plates at 200,000 cells per well. […] The supernatant was analyzed for IL-1β, IL-6, and TNFα, using Meso Scale assay according to manufacturer's protocol. […]
Measurement Type: inhibition at 1 µM

- Compound: "Cn1ncc(-c2nc(N[C@H]3CC[C@H](NC(=O)CCCCCCNCC(=O)Nc4cccc5c4CN([C@H]4CCCC(=O)NC4=O)C5=O)CC3)ncc2Cl)c1CC1CC1"
  Measured Target: "TNF-α"
  Test Value: "50 to 70%"

[ask] Returns the measured inhibition at 1 µM for the input compound. Input: Cn1ncc(-c2nc(N[C@H]3CC[C@H](NC(=O)CCCCCCNCC(=O)NCc4ccc(COc5cccc6c5CN(C5CCC(=O)NC5=O)C6=O)cc4)CC3)ncc2Cl)c1CC1CC1 (some centres unmarked)
[reply] < 50%

[ask] Then Cn1ncc(-c2nc(N[C@H]3CC[C@H](NCC(=O)NCCOCCOCCOCCNc4cccc5c4CN(C4CCC(=O)NC4=O)C5=O)CC3)ncc2F)c1CC1CC1 (some centres unmarked) ?
[reply] > 90%

[ask] Can you check Cc1nc2c(CNC(=O)NCCCCCCCCN[C@H]3CC[C@H](Nc4ncc(Cl)c(-c5cnn(C)c5CC5CC5)n4)CC3)scc2c(=O)n1C1CCC(=O)NC1=O (some centres unmarked) next?
[reply] > 90%

[ask] Query Cn1ncc(-c2nc(N[C@H]3CC[C@H](NCCOCCOCCOCCNCc4ccc(OCc5scc6c5CN([C@H]5CCC(=O)NC5=O)C6=O)cc4)CC3)ncc2Cl)c1CC1CC1 next
[reply] 70 to 90%

* * *

Biological target: CDK9 (Homo sapiens, UniProt P50750)
Construct: Whole cell extracts were prepared using RIPA buffer; endogenous in cells; host or cells: MV-4-11
Sequence (P50750 whole entry): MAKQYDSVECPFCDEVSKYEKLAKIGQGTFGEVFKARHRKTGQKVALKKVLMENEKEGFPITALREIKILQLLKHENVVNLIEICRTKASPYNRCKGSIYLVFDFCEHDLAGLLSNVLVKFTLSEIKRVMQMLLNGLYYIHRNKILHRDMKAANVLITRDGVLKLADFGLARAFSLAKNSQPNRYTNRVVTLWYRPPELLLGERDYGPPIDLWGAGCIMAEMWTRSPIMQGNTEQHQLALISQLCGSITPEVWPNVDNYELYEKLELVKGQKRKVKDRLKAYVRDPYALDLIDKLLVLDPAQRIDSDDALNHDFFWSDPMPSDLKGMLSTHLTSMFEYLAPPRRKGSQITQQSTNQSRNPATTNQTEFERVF
Experiment: CDK9 degradation assay (Western blot, MV-4-11 cells)
Assay type: cell-based
Conditions: MV4-11, 1 μM, 6-8 h
Measurement Type: Dmax at 1 µM

- Molecule: "CC(C)(C)c1cnc(CSc2cnc(NC(=O)C3CCN(CC(=O)NCCCCCNCC(=O)NCc4scc5c4CN(C4CCC(=O)NC4=O)C5=O)CC3)s2)o1 (stereo not shown)"
  Measurement Type: "Dmax at 1 µM"
  Test Value: "≥ 75%"

[ask] Observed Dmax at 1 µM on CDK9 (Homo sapiens, UniProt P50750) for CC(C)(C)c1cnc(CSc2cnc(NC(=O)C3CCN(CC(=O)NCCOCCOCCNCC(=O)NCc4scc5c4CN(C4CCC(=O)NC4=O)C5=O)CC3)s2)o1 (stereo not shown) , please.
[reply] ≥ 75%

[ask] Moving on to the next molecule: Cn1ncc(-c2nc(N[C@H]3CC[C@H](NCC(=O)NCCCCNCC(=O)NCc4cc5c(s4)C(=O)N(C4CCC(=O)NC4=O)C5=O)CC3)ncc2Cl)c1CC1CC1 (stereo partly shown)
[reply] 25 to 50%

[ask] Repeat with CC(C)(C)c1cnc(CSc2cnc(NC(=O)C3CCN(CC(=O)NCCCCNCC(=O)NCc4cc5c(s4)C(=O)N(C4CCC(=O)NC4=O)C5)CC3)s2)o1 (stereo not shown)
[reply] ≥ 75%

[ask] Follow-up entry: Cn1ncc(-c2nc(N[C@H]3CC[C@H](NCC(=O)NCCCCNCC(=O)NCc4cc5c(s4)C(=O)N(C4CCC(=O)NC4=O)C5)CC3)ncc2F)c1CC1CC1 (stereo partly shown)
[reply] 50 to 75%

* * *

Dmax at 1 µM values by entry
Target: GSPT1 (Homo sapiens, UniProt P15170+Q96SW2)
Construct: Whole cell extracts were prepared using RIPA buffer; endogenous in cells; host or cells: MV-4-11
Sequence (P15170 whole entry): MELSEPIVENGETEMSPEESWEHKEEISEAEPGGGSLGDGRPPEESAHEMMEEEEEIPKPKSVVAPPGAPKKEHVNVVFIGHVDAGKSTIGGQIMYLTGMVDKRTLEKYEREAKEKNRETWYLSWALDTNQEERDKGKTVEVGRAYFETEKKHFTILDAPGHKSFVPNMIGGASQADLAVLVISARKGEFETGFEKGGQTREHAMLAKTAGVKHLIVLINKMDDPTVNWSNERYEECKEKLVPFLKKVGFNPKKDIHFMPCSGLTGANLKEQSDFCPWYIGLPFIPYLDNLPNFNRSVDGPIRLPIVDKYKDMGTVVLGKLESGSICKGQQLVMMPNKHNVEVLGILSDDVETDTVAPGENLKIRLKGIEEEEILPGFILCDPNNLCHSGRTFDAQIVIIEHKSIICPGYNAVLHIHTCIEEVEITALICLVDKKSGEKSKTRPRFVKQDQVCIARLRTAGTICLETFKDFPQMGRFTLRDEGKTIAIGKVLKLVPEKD
Sequence (Q96SW2 whole entry): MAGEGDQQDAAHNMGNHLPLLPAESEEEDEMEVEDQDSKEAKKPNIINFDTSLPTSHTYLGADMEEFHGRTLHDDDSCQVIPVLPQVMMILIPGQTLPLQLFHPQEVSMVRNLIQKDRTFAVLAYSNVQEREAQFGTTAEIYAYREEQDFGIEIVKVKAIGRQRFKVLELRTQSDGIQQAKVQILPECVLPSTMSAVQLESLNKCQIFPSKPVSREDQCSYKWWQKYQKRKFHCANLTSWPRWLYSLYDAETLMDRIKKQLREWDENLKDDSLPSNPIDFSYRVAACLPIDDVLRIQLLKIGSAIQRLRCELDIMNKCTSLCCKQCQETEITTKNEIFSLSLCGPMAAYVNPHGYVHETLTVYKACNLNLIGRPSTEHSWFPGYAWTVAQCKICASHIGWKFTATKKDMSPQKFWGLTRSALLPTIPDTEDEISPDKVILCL
Sequence (Q16531 whole entry partner): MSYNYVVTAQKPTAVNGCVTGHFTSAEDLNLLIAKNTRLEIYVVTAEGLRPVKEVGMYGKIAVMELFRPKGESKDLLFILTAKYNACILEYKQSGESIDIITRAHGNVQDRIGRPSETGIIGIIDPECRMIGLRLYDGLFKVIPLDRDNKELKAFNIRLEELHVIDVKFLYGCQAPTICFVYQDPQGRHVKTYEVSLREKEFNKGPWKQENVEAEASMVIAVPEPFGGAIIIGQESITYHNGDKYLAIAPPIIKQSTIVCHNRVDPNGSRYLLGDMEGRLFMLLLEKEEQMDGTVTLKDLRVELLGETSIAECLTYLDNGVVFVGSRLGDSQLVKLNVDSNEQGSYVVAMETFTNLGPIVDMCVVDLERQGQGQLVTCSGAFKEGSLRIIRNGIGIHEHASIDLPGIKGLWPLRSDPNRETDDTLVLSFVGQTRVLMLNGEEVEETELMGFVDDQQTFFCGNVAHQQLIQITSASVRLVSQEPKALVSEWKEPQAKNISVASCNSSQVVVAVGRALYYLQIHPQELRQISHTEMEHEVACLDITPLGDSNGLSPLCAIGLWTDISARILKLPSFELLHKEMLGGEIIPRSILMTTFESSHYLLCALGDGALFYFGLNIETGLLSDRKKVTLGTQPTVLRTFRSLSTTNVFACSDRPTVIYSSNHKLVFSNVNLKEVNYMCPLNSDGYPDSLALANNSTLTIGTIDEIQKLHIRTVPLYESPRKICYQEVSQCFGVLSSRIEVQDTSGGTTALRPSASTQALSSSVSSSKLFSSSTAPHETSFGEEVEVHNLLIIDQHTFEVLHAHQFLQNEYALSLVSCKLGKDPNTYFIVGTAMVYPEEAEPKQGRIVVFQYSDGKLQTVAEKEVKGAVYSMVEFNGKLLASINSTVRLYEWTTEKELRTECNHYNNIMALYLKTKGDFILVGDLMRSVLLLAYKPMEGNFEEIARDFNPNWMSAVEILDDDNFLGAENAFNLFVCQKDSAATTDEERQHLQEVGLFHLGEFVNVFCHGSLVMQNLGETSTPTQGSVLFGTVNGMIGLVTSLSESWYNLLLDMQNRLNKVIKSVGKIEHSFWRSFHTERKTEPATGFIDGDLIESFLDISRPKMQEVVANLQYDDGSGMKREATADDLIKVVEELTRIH
Experiment: GSPT1 degradation assay (Western blot, MV-4-11 cells)
Type: cell-based
Conditions: MV4-11, 6-8 h
Procedure: MV-4-11 cells were grown in RPMI 1640 media supplemented with 10% fetal bovine serum, streptomycin and penicillin. Cells were cultured at approximately 10^6 cells per mL and incubated in DMSO or the indicated compound for 6-8 h. […] For Western blot analysis, whole cell protein extracts were separated on 4-12% SDS-polyacrylamide gels, transferred to nitrocellulose and probed with the indicated primary antibodies. […] The signal was detected using the Odyssey Imaging System (LI-COR). […]

// worked examples, Dmax at 1 µM included
- Compound: "Cn1ncc(-c2nc(N[C@H]3CC[C@H](NCC(=O)NCCOCCOCCOCCNc4cccc5c4C(=O)N(C4CCC(=O)NC4=O)C5=O)CC3)ncc2Cl)c1CC1CC1 (some centres unmarked) [Compound 49]"
  Test Value: "< 25%"
- Compound: "CC(C)(C)c1cnc(CSc2cnc(NC(=O)C3CCN(CC(=O)NCCOCCOCCOCCNCC(=O)NCc4scc5c4CN(C4CCC(=O)NC4=O)C5=O)CC3)s2)o1 (centres unmarked) [Compound 41]"
  Test Value: "≥ 75%"
- Compound: "Cn1ncc(-c2nc(N[C@H]3CC[C@H](NCC(=O)NCCCCNCC(=O)NCc4cc5c(s4)C(=O)N(C4CCC(=O)NC4=O)C5)CC3)ncc2F)c1CC1CC1 (some centres unmarked) [Compound 29]"
  Test Value: "< 25%"
- Compound: "Cn1ncc(-c2nc(N[C@H]3CC[C@H](NCC(=O)NCCCCCNCC(=O)NCc4scc5c4CN(C4CCC(=O)NC4=O)C5=O)CC3)ncc2F)c1CC1CC1 (some centres unmarked) [Compound 32]"
  Test Value: "25 to 50%"

[ask] What value of measured Dmax at 1 µM is listed for Cn1ncc(-c2nc(N[C@H]3CC[C@H](NCC(=O)NCCOCCOCCOCCNCC(=O)NCc4cc5c(s4)C(=O)N(C4CCC(=O)NC4=O)C5)CC3)ncc2Cl)c1CC1CC1 (some centres unmarked) [Compound 43] ?
[reply] 50 to 75%

* * *

Recorded Dmax at 0.1 µM for the following compounds
Biological target: CDK16 (Homo sapiens, UniProt Q00536)
Construct: Whole cell extracts were prepared using RIPA buffer; endogenous in cells; host or cells: MV-4-11
Sequence (Q00536 whole entry): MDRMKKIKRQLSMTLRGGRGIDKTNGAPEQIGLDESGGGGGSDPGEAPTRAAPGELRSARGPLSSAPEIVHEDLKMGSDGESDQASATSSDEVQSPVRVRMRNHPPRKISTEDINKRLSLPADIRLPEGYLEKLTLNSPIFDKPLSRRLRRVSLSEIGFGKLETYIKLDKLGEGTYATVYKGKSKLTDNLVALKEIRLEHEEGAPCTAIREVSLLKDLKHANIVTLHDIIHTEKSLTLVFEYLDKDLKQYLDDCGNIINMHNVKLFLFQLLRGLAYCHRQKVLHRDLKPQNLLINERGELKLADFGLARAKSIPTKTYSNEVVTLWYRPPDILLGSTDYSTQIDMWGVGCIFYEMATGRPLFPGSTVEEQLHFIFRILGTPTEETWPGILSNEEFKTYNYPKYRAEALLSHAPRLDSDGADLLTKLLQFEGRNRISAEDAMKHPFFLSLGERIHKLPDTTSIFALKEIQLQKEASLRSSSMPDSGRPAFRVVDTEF
Experiment: CDK16 degradation assay (Western blot, MV-4-11 cells)
Format: cell-based
Conditions: MV4-11, 0.1 μM, 6-8 h

Worked set:
- Compound: "CC(C)(C)c1cnc(CSc2cnc(NC(=O)C3CCN(CC(=O)NCCCCNCC(=O)NCc4cc5c(s4)C(=O)N(C4CCC(=O)NC4=O)C5)CC3)s2)o1 (centres unmarked) [Compound 14]"
  Measured Target: "CDK16 (Homo sapiens, UniProt Q00536)"
  Test Value: "< 25%"
- Compound: "Cn1ncc(-c2nc(N[C@H]3CC[C@H](NCC(=O)NCCNCC(=O)NCc4cc5c(s4)C(=O)N(C4CCC(=O)NC4=O)C5)CC3)ncc2Cl)c1CC1CC1 (some centres unmarked) [Compound 40]"
  Measured Target: "CDK16 (Homo sapiens, UniProt Q00536)"
  Test Value: "25 to 50%"
- Compound: "CC(C)(C)c1cnc(CSc2cnc(NC(=O)C3CCN(CC(=O)NCCCCCNCC(=O)NCc4scc5c4CN(C4CCC(=O)NC4=O)C5=O)CC3)s2)o1 (centres unmarked) [Compound 33]"
  Measured Target: "CDK16 (Homo sapiens, UniProt Q00536)"
  Test Value: "< 25%"
- Compound: "Cn1ncc(-c2nc(N[C@H]3CC[C@H](NCC(=O)NCCCCCNC(=O)NCc4cc5c(s4)C(=O)N(C4CCC(=O)NC4=O)C5)CC3)ncc2Cl)c1CC1CC1 (some centres unmarked) [Compound 16]"
  Measured Target: "CDK16 (Homo sapiens, UniProt Q00536)"
  Test Value: "≥ 75%"
- Compound: "Cn1ncc(-c2nc(N[C@H]3CC[C@H](NCC(=O)NCCCCCNCC(=O)NCc4scc5c4CN(C4CCC(=O)NC4=O)C5=O)CC3)ncc2F)c1CC1CC1 (some centres unmarked) [Compound 32]"
  Measured Target: "CDK16 (Homo sapiens, UniProt Q00536)"
  Test Value: "50 to 75%"

[ask] Can you share its Dmax at 0.1 µM? I mean this compound: Cn1ncc(-c2nc(N[C@H]3CC[C@H](NCC(=O)NCCCCNCC(=O)NCc4scc5c4CN(C4CCC(=O)NC4=O)C5=O)CC3)ncc2Cl)c1CC1CC1 (some centres unmarked) [Compound 38]
[reply] 50 to 75%

[ask] And what about the compound Cn1ncc(-c2nc(N[C@H]3CC[C@H](NCC(=O)NCCCCNCC(=O)NCc4scc5c4CN(C4CCC(=O)NC4=O)C5=O)CC3)ncc2F)c1CC1CC1 (some centres unmarked) [Compound 39] ?
[reply] < 25%

[ask] Moving on to Cn1ncc(-c2nc(N[C@H]3CC[C@H](NCCCCCCCCNC(=O)NCc4cc5c(s4)C(=O)N(C4CCC(=O)NC4=O)C5)CC3)ncc2Cl)c1CC1CC1 (some centres unmarked) [Compound 22]
[reply] < 25%

[ask] And what about the compound Cn1ncc(-c2nc(N[C@H]3CC[C@H](NCC(=O)NCCCCCNCC(=O)NCc4scc5c4CN(C4CCC(=O)NC4=O)C5=O)CC3)ncc2Cl)c1CC1CC1 (some centres unmarked) [Compound 31] ?
[reply] 25 to 50%

[ask] Follow-up item: Cn1ncc(-c2nc(N[C@H]3CC[C@H](NCC(=O)NCCCCCNCC(=O)NCc4cc5c(s4)C(=O)N(C4CCC(=O)NC4=O)C5)CC3)ncc2Cl)c1CC1CC1 (some centres unmarked) [Compound 30]
[reply] 25 to 50%

[ask] Check Cn1ncc(-c2nc(N[C@H]3CC[C@H](NCC(=O)NCCCCNCC(=O)NCc4cc5c(s4)C(=O)N(C4CCC(=O)NC4=O)C5)CC3)ncc2Cl)c1CC1CC1 (some centres unmarked) [Compound 35] too.
[reply] < 25%
